# Test system: HT-29
# test.description: NCI tumour cell line growth inhibition, 48 h
Active and inactive are the calls of the source. Cut-off read from the data, not from the text of the source: active = GI50 up to about 1.1 µM and inactive = higher.
Result category, one only: active, inactive

Problem: What outcome does the record of this test show for CC(=O)OC1C/C(C)=C/CCC(C)/C=C/C2(C)CCC(C(C)(C)O)C12 (stereo not drawn) ?
Solution: inactive

Problem: What outcome does the record of this test show for `S=C1NCCN1` ?
Solution: inactive

Problem: What outcome does the record of this test show for `CCO[C@@H]1OC(=O)[C@](C)(C(C)=O)[C@@H]1C` ?
Solution: inactive

Problem: What outcome does the record of this test show for CCCCCCC(C)CCCCCCCCCCC(=O)O (stereo not drawn) ?
Solution: inactive

Problem: What outcome does the record of this test show for CC(=O)O[C@@H]1[C@H](OC2CCCCC2(c2ccccc2)c2ccccc2)O[N+]([O-])=CC12CCCCC2 (stereo partly drawn) ?
Solution: inactive

Problem: What outcome does the record of this test show for `Cc1nc2ccc(F)cc2c2c1CCS2` ?
Solution: inactive

Problem: What outcome does the record of this test show for CC(=O)OCC(OC(C)=O)C(OC(C)=O)C(OC(C)=O)C(C=NN(C(C)=O)S(=O)(=O)c1ccc(/C=C2\NC(=O)N(C)C2=O)cc1)OC(C)=O (stereo not drawn) ?
Solution: inactive

Problem: What outcome does the record of this test show for c1ccc(SCCP(CCP(c2ccccc2)c2ccccc2)c2ccccc2)cc1 (stereo not drawn) ?
Solution: inactive

Problem: What outcome does the record of this test show for `COc1c(OC)c(OC)c2c(c1OC)c(=O)c1ccccc1n2C` ?
Solution: inactive

Problem: What outcome does the record of this test show for OC(c1ccc(-c2ccccc2)cc1)C(F)(F)c1nc2ccccc2o1 (stereo not drawn) ?
Solution: inactive

Problem: What outcome does the record of this test show for `CCCCCCCCCCCCCCCCc1c(O)nc(NN)nc1C(=O)OC` ?
Solution: inactive

Problem: What outcome does the record of this test show for O=C1OC(Cl)C(N=P(c2ccccc2)(c2ccccc2)c2ccccc2)=C1Cl (stereo not drawn) ?
Solution: inactive

Problem: What outcome does the record of this test show for `O=C(CN1CCN(Cc2ccccc2)CC1)c1ccc2[nH]c(=O)oc2c1` ?
Solution: inactive

Problem: What outcome does the record of this test show for CC1(S)CC2C(CC1Sc1ccccc1)C2(C)C (stereo not drawn) ?
Solution: inactive

Problem: What outcome does the record of this test show for `O=C1CCCC2=C1CC1=C(CCCC1=O)N2c1ccc([N+](=O)[O-])cc1` ?
Solution: inactive

Problem: What outcome does the record of this test show for `NCCCCNOCCCN` ?
Solution: inactive

Problem: What outcome does the record of this test show for `O=[N+]([O-])c1nccn1CCCNc1c2ccccc2[n+]([O-])c2ccccc12` ?
Solution: inactive

Problem: What outcome does the record of this test show for COc1ccc(N2C(=O)C3c4[nH]c5ccc(C)cc5c4C4CCC(C(C)(C)C)CC4C3C2=O)cc1 (stereo not drawn) ?
Solution: inactive

Problem: What outcome does the record of this test show for CN(Cc1nc2c(N)nc(N)nc2nc1N)c1ccc(C(=O)NC(CCC(=O)O)C(=O)O)cc1 (stereo not drawn) ?
Solution: active

Problem: What outcome does the record of this test show for NC(=S)NNCC(=O)CC(O)(C(F)(F)F)C(F)(F)Cl (stereo not drawn) ?
Solution: inactive

Problem: What outcome does the record of this test show for COC12c3ccccc3-c3ccccc3C1[C@H]1C(=O)OC(=O)[C@H]12 (stereo partly drawn) ?
Solution: inactive

Problem: What outcome does the record of this test show for O=C(O)C[C@H]1CCCCC12CCOC2=O (stereo partly drawn) ?
Solution: inactive

Problem: What outcome does the record of this test show for COCC1OCCN1C (stereo not drawn) ?
Solution: inactive
